System: Pseudomonas aeruginosa
measurement_notes: Potentiation of piperacillin-induced antibacterial activity against wild type Pseudomonas aeruginosa PAO1 assessed as fold reduction in piperacillin MIC at 8 uM
Type: functional
Documented fold change (FC) across a set of compounds

| compound_string | fold change (FC) |
| --- | --- |
| Cl.Cl.Cl.Cl.Cl.Cl.NC[C@H]1O[C@H](O[C@H]2[C@H](OCCCCCCCCCCCCN3CCN(c4cc5c(cc4F)c(=O)c(C(=O)O)cn5C4CC4)CC3)[C@@H](O[C@H]3O[C@H](CO)[C@@H](O)[C@H](N)[C@H]3O)[C@H](N)C[C@@H]2N)[C@H](N)C[C@@H]1O | 2 |
| NC[C@H]1O[C@H](O[C@H]2[C@H](OCCCCCCCCN3CCCNCCNCCCNCC3)[C@@H](O[C@H]3O[C@H](CO)[C@@H](O)[C@H](N)[C@H]3O)[C@H](N)C[C@@H]2N)[C@H](N)C[C@@H]1O.O=C(O)C(F)(F)F.O=C(O)C(F)(F)F.O=C(O)C(F)(F)F.O=C(O)C(F)(F)F.O=C(O)C(F)(F)F.O=C(O)C(F)(F)F.O=C(O)C(F)(F)F.O=C(O)C(F)(F)F.O=C(O)C(F)(F)F | 2 |
| NC[C@H]1O[C@H](O[C@H]2[C@H](OCCCCCCCCN3CCCNCCNCCCNCC3)[C@@H](O)[C@H](N)C[C@@H]2N)[C@H](N)C[C@@H]1O.O=C(O)C(F)(F)F.O=C(O)C(F)(F)F.O=C(O)C(F)(F)F.O=C(O)C(F)(F)F.O=C(O)C(F)(F)F.O=C(O)C(F)(F)F.O=C(O)C(F)(F)F.O=C(O)C(F)(F)F | 2 |

This collection of values is drawn from ChEMBL document CHEMBL4665836.
